I'd be grateful if you could share measured peptide exchange yield for these entries.
# SYSTEM_UNDER_TEST: T1, HLA-A*02:01 (human)
# T1 construct: monomers captured on streptavidin plates; also called MHC class I
# TEST: UV peptide exchange ELISA

Reference set, count: 3
| BINDER | peptide exchange yield |
| --- | --- |
| SLTIDGIRYV | 50 to 75% |
| SLTETIEGV | 20 to 50% |
| SLTEYLQNV | ≥ 75% |

q: Identify the reported peptide exchange yield for the following entry. SLTIDGIYYV
a: ≥ 75%
